Reported relative viability by item:
Tested on: LCLC-97TM1
assay.details: relative viability (nuclei count vs DMSO), 5 days (fraction); higher = more cells survive
condition: first compound 2.53 µM
A bare number is all that is needed in reply.

[
  {
    "compound": "COc1nc(C)cnc1NS(=O)(=O)c1cccnc1-c1ccc(-c2nnco2)cc1 [Zibotentan] + CCNC(=O)c1noc(-c2cc(C(C)C)c(O)cc2O)c1-c1ccc(CN2CCOCC2)cc1 [Luminespib] (partner 0.01 µM)",
    "reported.value": 0.692
  }
]

// next item, relative viability requested
Q) Identify the reported relative viability for the following entry. O=c1cc(-c2cccc3c2Sc2ccccc2S3)oc(N2CCOCC2)c1 + COc1cc2c(Oc3ccc(NC(=O)C4(C(=O)Nc5ccc(F)cc5)CC4)cc3F)ccnc2cc1OCCCN1CCOCC1 [Foretinib] (partner 0.25 µM)
A) 0.887

---

Tested on: LU99A
assay.details: relative viability (nuclei count vs DMSO), 5 days (fraction); higher = more cells survive
condition: first compound 0.08 µM
Reported relative viability by item:
A bare number is all that is needed in reply.

[
  {
    "compound": "COc1nc(C)cnc1NS(=O)(=O)c1cccnc1-c1ccc(-c2nnco2)cc1 [Zibotentan] + CC(=O)c1c(C)c2cnc(Nc3ccc(N4CCNCC4)cn3)nc2n(C2CCCC2)c1=O [Palbociclib] (partner 0.5 µM)",
    "measure.name": "relative viability",
    "reported.value": 0.394
  },
  {
    "compound": "O=c1cc(-c2cccc3c2Sc2ccccc2S3)oc(N2CCOCC2)c1 + CC(=O)Nc1cccc(-n2c(=O)n(C3CC3)c(=O)c3c(Nc4ccc(I)cc4F)n(C)c(=O)c(C)c32)c1 [Trametinib] (partner 0.02 µM)",
    "measure.name": "relative viability",
    "reported.value": 0.531
  },
  {
    "compound": "COc1nc(C)cnc1NS(=O)(=O)c1cccnc1-c1ccc(-c2nnco2)cc1 [Zibotentan] + C[C@]1(O)C[C@@H](c2nc(-c3ccc4ccc(-c5ccccc5)nc4c3)c3c(N)nccn32)C1 [Linsitinib] (partner 1 µM)",
    "measure.name": "relative viability",
    "reported.value": 0.602
  }
]

Q) Identify the reported relative viability for the following entry. O=c1cc(-c2cccc3c2Sc2ccccc2S3)oc(N2CCOCC2)c1 + CS(=O)(=O)CCNCc1ccc(-c2ccc3ncnc(Nc4ccc(OCc5cccc(F)c5)c(Cl)c4)c3c2)o1 [Lapatinib] (partner 2 µM)
A) 1.07

---

Tested on: A-427
assay.details: relative viability (nuclei count vs DMSO), 5 days (fraction); higher = more cells survive
condition: first compound 8 µM
measure.name: relative viability
A bare number is all that is needed in reply.

Would you please look over these solved cases?
[
  {
    "compound": "O=c1cc(-c2cccc3c2Sc2ccccc2S3)oc(N2CCOCC2)c1 + CS(=O)(=O)CCNCc1ccc(-c2ccc3ncnc(Nc4ccc(OCc5cccc(F)c5)c(Cl)c4)c3c2)o1 [Lapatinib] (partner 2 µM)",
    "measure.name": "relative viability",
    "reported.value": 1.12
  },
  {
    "compound": "O=c1cc(-c2cccc3c2Sc2ccccc2S3)oc(N2CCOCC2)c1 + Cc1nc(Nc2ncc(C(=O)Nc3c(C)cccc3Cl)s2)cc(N2CCN(CCO)CC2)n1 [Dasatinib] (partner 0.075 µM)",
    "measure.name": "relative viability",
    "reported.value": 0.884
  }
]

Q) Identify the reported relative viability for the following entry. O=c1cc(-c2cccc3c2Sc2ccccc2S3)oc(N2CCOCC2)c1 + COc1cc2c(Oc3ccc(NC(=O)C4(C(=O)Nc5ccc(F)cc5)CC4)cc3F)ccnc2cc1OCCCN1CCOCC1 [Foretinib] (partner 0.25 µM)
A) 1.11

Q) Identify the reported relative viability for the following entry. O=c1cc(-c2cccc3c2Sc2ccccc2S3)oc(N2CCOCC2)c1 + N=C(N)NC(=N)NCCc1ccccc1 [Phenformin] (partner 250 µM)
A) 0.35

Q) Identify the reported relative viability for the following entry. O=c1cc(-c2cccc3c2Sc2ccccc2S3)oc(N2CCOCC2)c1 + Nc1nc2[nH]cc(CCc3ccc(C(=O)N[C@@H](CCC(=O)O)C(=O)O)cc3)c2c(=O)[nH]1 [Pemetrexed] (partner 0.2 µM)
A) 0.993

Ref: the supplement of paper PMC10307832
